Could you please report measured MIC for the items listed next?
Tested on: Mycolicibacterium smegmatis
METHOD: Antimycobacterial activity against Mycobacterium smegmatis harboring PknG Msm gene by Etest method
Assay type: functional
Numbers only, in mg/L.

Some entries whose results are on file:
CC[C@H]1OC(=O)[C@H](C)[C@@H](O[C@H]2C[C@@](C)(OC)[C@@H](O)[C@H](C)O2)[C@H](C)[C@@H](O[C@@H]2O[C@H](C)C[C@H](N(C)C)[C@H]2O)[C@](C)(O)C[C@@H](C)C(=O)[C@H](C)[C@@H](O)[C@]1(C)O [ERYTHROMYCIN]    32
CN[C@H](CC(C)C)C(=O)N[C@H]1C(=O)N[C@@H](CC(N)=O)C(=O)N[C@H]2C(=O)N[C@H]3C(=O)N[C@H](C(=O)N[C@H](C(=O)O)c4cc(O)cc(O)c4-c4cc3ccc4O)[C@H](O)c3ccc(c(Cl)c3)Oc3cc2cc(c3O[C@@H]2O[C@H](CO)[C@@H](O)[C@H](O)[C@H]2O[C@H]2C[C@](C)(N)[C@H](O)[C@H](C)O2)Oc2ccc(cc2Cl)[C@H]1O [VANCOMYCIN]    48
C[C@@H](O)[C@H]1C(=O)N2C(C(=O)O)=C(SCCNC=N)C[C@H]12 [IMIPENEM ANHYDROUS]    6

Here's the next entry for you.
Entry CC[C@@H](CO)NCCN[C@@H](CC)CO [ETHAMBUTOL] : reported MIC = ?
0.25

----------
Test system: Mycolicibacterium smegmatis
METHOD: Antimycobacterial activity against PknGMsm-deficient Mycobacterium smegmatis by Etest method
Format: functional
ATTRIBUTE MEASURED: MIC (µg/mL)
One number for each entry, in µg/mL.

Entry C[C@@H](O)[C@H]1C(=O)N2C(C(=O)O)=C(SCCNC=N)C[C@H]12 [IMIPENEM ANHYDROUS] : reported MIC = ?
0.38

----------
Could you please report measured MIC for the items listed next?
Test system: Mycolicibacterium smegmatis
METHOD: Antimycobacterial activity against PknGMsm-deficient Mycobacterium smegmatis by Etest method
Format: functional
One number for each entry, in µg/mL.

CC[C@H]1OC(=O)[C@H](C)[C@@H](O[C@H]2C[C@@](C)(OC)[C@@H](O)[C@H](C)O2)[C@H](C)[C@@H](O[C@@H]2O[C@H](C)C[C@H](N(C)C)[C@H]2O)[C@](C)(O)C[C@@H](C)C(=O)[C@H](C)[C@@H](O)[C@]1(C)O    3
CC[C@@H](CO)NCCN[C@@H](CC)CO    0.064
CO[C@H]1/C=C/O[C@@]2(C)Oc3c(C)c(O)c4c(O)c(c(/C=N/N5CCN(C)CC5)c(O)c4c3C2=O)NC(=O)/C(C)=C\C=C\[C@H](C)[C@H](O)[C@@H](C)[C@@H](O)[C@@H](C)[C@H](OC(C)=O)[C@@H]1C    4

Here's the next entry for you.
Entry `CN[C@H](CC(C)C)C(=O)N[C@H]1C(=O)N[C@@H](CC(N)=O)C(=O)N[C@H]2C(=O)N[C@H]3C(=O)N[C@H](C(=O)N[C@H](C(=O)O)c4cc(O)cc(O)c4-c4cc3ccc4O)[C@H](O)c3ccc(c(Cl)c3)Oc3cc2cc(c3O[C@@H]2O[C@H](CO)[C@@H](O)[C@H](O)[C@H]2O[C@H]2C[C@](C)(N)[C@H](O)[C@H](C)O2)Oc2ccc(cc2Cl)[C@H]1O` : reported MIC = ?
4
